- target_entity: UniProt P49327
- Sequence (P49327 whole entry, the tested form may be a part): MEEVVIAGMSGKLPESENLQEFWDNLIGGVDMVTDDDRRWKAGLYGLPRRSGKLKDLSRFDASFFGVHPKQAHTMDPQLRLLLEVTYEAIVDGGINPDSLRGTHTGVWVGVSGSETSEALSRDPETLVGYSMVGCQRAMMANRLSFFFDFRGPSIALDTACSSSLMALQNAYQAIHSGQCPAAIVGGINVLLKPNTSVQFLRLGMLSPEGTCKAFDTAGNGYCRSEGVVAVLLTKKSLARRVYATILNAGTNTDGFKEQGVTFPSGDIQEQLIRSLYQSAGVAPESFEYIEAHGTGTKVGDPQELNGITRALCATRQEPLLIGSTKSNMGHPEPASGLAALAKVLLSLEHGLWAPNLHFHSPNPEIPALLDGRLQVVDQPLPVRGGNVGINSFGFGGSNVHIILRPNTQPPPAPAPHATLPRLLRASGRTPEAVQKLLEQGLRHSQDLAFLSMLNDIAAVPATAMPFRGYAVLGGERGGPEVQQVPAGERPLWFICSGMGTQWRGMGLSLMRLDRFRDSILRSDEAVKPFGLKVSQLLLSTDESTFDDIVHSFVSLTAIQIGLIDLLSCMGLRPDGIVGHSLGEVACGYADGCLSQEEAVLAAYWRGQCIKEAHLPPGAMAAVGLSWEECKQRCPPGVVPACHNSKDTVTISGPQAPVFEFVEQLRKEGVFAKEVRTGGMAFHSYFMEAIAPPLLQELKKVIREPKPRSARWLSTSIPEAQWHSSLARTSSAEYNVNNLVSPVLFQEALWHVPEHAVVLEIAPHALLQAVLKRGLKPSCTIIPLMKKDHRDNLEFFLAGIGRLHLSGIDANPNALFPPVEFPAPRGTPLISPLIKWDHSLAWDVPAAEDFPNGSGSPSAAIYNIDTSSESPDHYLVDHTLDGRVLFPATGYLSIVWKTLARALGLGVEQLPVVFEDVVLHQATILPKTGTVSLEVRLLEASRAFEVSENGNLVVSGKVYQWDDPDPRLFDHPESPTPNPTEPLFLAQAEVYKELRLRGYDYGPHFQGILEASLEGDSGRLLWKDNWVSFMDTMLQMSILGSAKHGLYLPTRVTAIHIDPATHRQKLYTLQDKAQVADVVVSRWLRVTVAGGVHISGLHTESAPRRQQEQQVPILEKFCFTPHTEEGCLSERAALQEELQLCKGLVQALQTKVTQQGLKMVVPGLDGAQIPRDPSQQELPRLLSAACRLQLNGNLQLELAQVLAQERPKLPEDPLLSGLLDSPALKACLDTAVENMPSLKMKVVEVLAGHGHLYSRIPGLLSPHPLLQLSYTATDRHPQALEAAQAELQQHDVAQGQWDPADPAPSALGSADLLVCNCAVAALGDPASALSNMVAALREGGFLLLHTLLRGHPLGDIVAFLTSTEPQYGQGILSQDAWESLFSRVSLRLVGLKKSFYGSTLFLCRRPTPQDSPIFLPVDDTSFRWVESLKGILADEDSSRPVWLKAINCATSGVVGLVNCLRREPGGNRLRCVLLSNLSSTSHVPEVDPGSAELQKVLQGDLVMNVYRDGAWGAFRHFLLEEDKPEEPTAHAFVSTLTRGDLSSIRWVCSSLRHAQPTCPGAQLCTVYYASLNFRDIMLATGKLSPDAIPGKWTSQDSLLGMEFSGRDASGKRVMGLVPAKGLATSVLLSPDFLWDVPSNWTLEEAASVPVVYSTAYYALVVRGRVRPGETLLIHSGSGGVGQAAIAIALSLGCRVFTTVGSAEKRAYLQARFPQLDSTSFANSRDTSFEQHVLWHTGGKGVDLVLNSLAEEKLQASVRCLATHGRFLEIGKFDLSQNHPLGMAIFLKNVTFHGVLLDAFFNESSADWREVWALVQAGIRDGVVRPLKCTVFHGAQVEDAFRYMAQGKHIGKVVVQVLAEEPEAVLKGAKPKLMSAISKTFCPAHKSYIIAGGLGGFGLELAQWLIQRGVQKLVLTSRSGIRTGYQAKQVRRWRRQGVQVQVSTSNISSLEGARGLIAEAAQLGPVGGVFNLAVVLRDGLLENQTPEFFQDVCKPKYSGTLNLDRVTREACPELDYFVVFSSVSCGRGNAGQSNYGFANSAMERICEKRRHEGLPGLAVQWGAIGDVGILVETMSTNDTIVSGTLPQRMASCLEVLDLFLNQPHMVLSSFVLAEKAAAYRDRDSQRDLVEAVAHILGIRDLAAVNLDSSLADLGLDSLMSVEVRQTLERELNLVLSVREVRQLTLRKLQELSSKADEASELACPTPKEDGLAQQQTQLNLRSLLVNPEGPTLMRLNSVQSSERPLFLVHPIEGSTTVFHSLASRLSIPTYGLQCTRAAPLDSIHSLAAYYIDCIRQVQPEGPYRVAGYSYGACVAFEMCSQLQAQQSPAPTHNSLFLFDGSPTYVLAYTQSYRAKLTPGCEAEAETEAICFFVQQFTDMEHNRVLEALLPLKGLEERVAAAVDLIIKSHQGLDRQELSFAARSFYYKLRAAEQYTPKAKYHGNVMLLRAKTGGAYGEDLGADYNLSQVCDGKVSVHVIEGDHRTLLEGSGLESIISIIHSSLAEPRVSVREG
- assay_method_text: FAS thioesterase domain inhibitors, dose response, biochemical, kinetic fluorescence intensity (AID 624326);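 also: rate of fluorescence rise from hydrolysis of a fluorogenic O-methyl fluorescein ester substrate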
- Type: functional
Active and inactive are the calls of the source. Rule as the data show it: active = IC50 of 20 µM or less and inactive = more.
reported_endpoint: IC50

| molecule | target_entity | reported_endpoint | observed_value |
| --- | --- | --- | --- |
| COc1ccc([N+](=O)[O-])cc1NC(=O)C(C)OC(=O)/C=C/c1ccco1 (configuration not stated) | UniProt P49327 | IC50 | 6.45 µM (active) |
| C/C(=N\NS(=O)(=O)c1ccc(Cl)c([N+](=O)[O-])c1)c1cc2ccccc2o1 | UniProt P49327 | IC50 | 15.6 µM (active) |
| Cc1cccc(CS(=O)(=O)c2ncc(Cl)c(C(=O)Nc3ccc(F)cc3)n2)c1 | UniProt P49327 | IC50 | 19.4 µM (active) |
| CC(C(=O)NCCC1=CCCCC1)c1ccc([N+](=O)[O-])cc1 (configuration not stated) | UniProt P49327 | IC50 | 5.99 µM (active) |
| O=C(O)c1ccc(N/N=C/c2ccc(-c3ccc(Cl)cc3Cl)o2)cc1 | UniProt P49327 | IC50 | 3.65 µM (active) |
| O=[N+]([O-])c1ccc(-c2nc(Nc3cccc(O)c3)c3ccccc3n2)cc1 | UniProt P49327 | IC50 | 13.2 µM (active) |
| Cc1c(OCC(=O)NC(Cc2ccc(Cl)cc2)C(=O)O)ccc2c(-c3ccccc3)cc(=O)oc12 (configuration not stated) | UniProt P49327 | IC50 | 13.3 µM (active) |
